Target: IL-17A/A (Homo sapiens)
Sequence (Q16552 24-155): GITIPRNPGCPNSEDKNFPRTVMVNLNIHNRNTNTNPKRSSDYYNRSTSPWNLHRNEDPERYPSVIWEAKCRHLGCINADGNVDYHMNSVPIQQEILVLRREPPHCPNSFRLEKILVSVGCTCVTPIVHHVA
Test: IL-17A/A HEK-Blue Cell Assay
Assay type: cell-based
Settings: HEK-Blue IL-17 reporter cells, IL-17A/A stimulation, 20 hours, SEAP readout; read-out: IL17 AA HEK-5 pIC50 (converted)
endpoint.name: IC50

Tell me its IC50 given CCC(=O)N[C@@H](C(=O)N1CCN(C)CC1)[C@@H](C)c1ccc(NC(=O)[C@@H](NC(=O)c2ccnn2CC)C(C2CC2)C2CC2)c(F)c1 as the entry.
10 to 100 nM

Tell me its IC50 given CCn1nccc1C(=O)N[C@H](C(=O)Nc1ccc([C@H](C)[C@@H](NC(=O)C(C2CC2)C2CC2)C(=O)N2CCN(C)CC2)cc1F)C(C1CC1)C1CC1 as the entry.
< 10 nM

Tell me its IC50 given CCC(=O)N[C@@H](C(=O)N1CCN(C)CC1)[C@@H](C)c1ccc(NC(=O)[C@@H](NC(=O)c2ccnn2C2CC2(F)F)C(C2CC2)C2CC2)c(F)c1 (single isomer, unassigned) [Compound 234] as the entry.
< 10 nM

Tell me its IC50 given CCC(=O)N[C@@H](C(=O)N1CC[C@@H](N(C)C)C1)[C@@H](C)c1ccc(NC(=O)[C@@H](NC(=O)c2ccnn2CC)C(C2CC2)C2CC2)c(F)c1 as the entry.
10 to 100 nM

Tell me its IC50 given CCOC(=O)N[C@@H](C)C(=O)N[C@@H](C(=O)N1CCN(C)CC1)[C@@H](C)c1ccc(NC(=O)[C@@H](NC(=O)c2nonc2C)C(C2CC2)C2CC2)c(F)c1 as the entry.
< 10 nM
